Reported Ki against the protein given by its sequence, gathered from multiple publications, appears below.
Sequence of the target: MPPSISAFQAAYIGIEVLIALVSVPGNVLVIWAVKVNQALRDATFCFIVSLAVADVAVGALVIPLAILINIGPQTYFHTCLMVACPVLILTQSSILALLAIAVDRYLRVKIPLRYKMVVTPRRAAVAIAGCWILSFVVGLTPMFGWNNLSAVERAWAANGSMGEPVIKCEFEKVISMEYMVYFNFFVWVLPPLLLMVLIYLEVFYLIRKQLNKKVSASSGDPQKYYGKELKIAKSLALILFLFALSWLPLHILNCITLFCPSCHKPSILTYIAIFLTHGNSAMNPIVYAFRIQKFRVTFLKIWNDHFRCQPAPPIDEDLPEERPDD
Readout Kind: Ki (nM)

1. Cn1cc2c(nc(NC34CC5CC(CC(C5)C3)C4)n3nc(-c4ccco4)nc23)n1; 3310
2. CCc1nc(-c2ccco2)c2sccc2n1; 3210
3. CCCn1c(=O)c2c(nc3ccccn32)n(Cc2ccc(OC)cc2)c1=O; 83
4. Cc1cc(Br)cc(-c2nc(NC(=O)c3cccnc3)sc2-c2ccncc2)c1; 1450

====

# merged literature set: Ki with Adenosine receptor A1 (Homo sapiens)
So basically, if Ki comes in under 300 nM it's fulfilled, and if it's 300 nM or more it's not fulfilled.

1. Cc1nc(-c2sc(NC(=O)c3ccco3)nc2-c2ccccc2)no1; not fulfilled
2. S=c1sc2c(ncn3nc(-c4ccco4)nc23)n1-c1cccc(Cl)c1; fulfilled
3. O=C(O)c1cnc(NCc2ccc(-c3ccccc3)cc2)n2nc(-c3ccco3)nc12; not fulfilled
4. CCCn1c(=O)c2[nH]c(-c3cnn(CC(=O)Nc4ccccc4Cl)c3)nc2n(CCC)c1=O; fulfilled
5. COc1cccc(-c2n[nH]c(CCc3ccc(Cl)c(Cl)c3)n2)c1; not fulfilled
6. Nc1nc2cnn(CCCc3ccccc3)c2c2nc(-c3ccco3)nn12; fulfilled
7. CCCC1C(=O)c2nc(CN3N=C(Cl)CCC3=O)[nH]c2N(C)C1=O (stereo unspecified); not fulfilled
8. COc1c(C)cc(-c2cn3c(=O)n(-c4ccccc4)nc3c(N)n2)cc1C; fulfilled
9. N#Cc1c(N)nc(SCC(N)=O)c(C#N)c1-c1ccco1; fulfilled
10. CCOC(=O)c1cnc(NC(=O)Nc2ccccc2)n2nc(-c3ccco3)nc12; not fulfilled
11. Nc1nc(Cc2ccccc2O)nc2cn(-c3ccccc3)nc12; fulfilled
12. Cc1ccc(-c2nc(Nc3ccccc3)sc2C(=O)Nc2sc3c(c2C(N)=O)CCCC3)cc1; not fulfilled
13. Cc1ccc(C(=O)N[C@@H]2[C@@H](O)[C@H](n3cnc4c(NC5CCCC5)ncnc43)O[C@@H]2CO)cc1C; fulfilled
14. O=C(Nc1cc(-c2ccc3c(c2)OCO3)nc(-c2ccccc2)n1)C1CCCC1; fulfilled
15. CCc1nc(-c2ccccn2)c2sccc2n1; not fulfilled
16. COc1ccc(CCc2nc(N)c3nn(-c4ccccc4)cc3n2)cc1; not fulfilled
17. CCC1CN2C(=O)N(Cc3ccccc3)c3nc(-c4cc(OC)nn4C)[nH]c3C2=N1 (racemic); not fulfilled
18. CCOC(=O)c1c(NC(=O)c2sc(NC(=O)OC)nc2N(C)C)sc2c1CCCC2; not fulfilled
19. CCCn1c(=O)c2[nH]c(-c3cnn(Cc4ccc(F)cc4)c3)nc2n(CCC)c1=O; fulfilled
20. O=c1c2ncn3nc(-c4ccccc4)cc3c2c(C2CCCCC2)nn1Cc1ccccc1; fulfilled
21. CNC(=O)c1cnc(NCc2ccc(OC)c(OC)c2)n2nc(-c3ccco3)nc12; not fulfilled
